meta.source: patent US6482921B1

Property: MIC (μg/ml) Broth microdilution; scope: individual compounds
- System: Pseudomonas aeruginosa PAM 1135
- TEST SUMMARY: MIC broth microdilution, P. aeruginosa PAM 1135 (high level UPA resistance)
- Format: cell-based
- RECORDED CONDITIONS: P. aeruginosa PAM 1135 UPA1^r

A selection of reference data follows.
INSERT INTO assay_data (compound, subject_of_test, readout_name, experimental_result) VALUES
  ('CC(N)C(=O)N(C)C(C)C(NC(=O)C(Cc1ccc(F)cc1)NC(=O)NC(C(=O)O)c1ccccc1)C(=O)NCC1CC(O)C(n2ccc(=O)[nH]c2=O)O1 (mixture of isomers) [Compound 142]', 'Pseudomonas aeruginosa PAM 1135', 'MIC (μg/ml) Broth microdilution', '>512 µg/mL'),
  ('CC(C(NC(=O)C(Cc1ccc(F)cc1)NC(=O)NC(Cc1ccc(O)cc1)C(=O)O)C(=O)NCC1CC(O)C(n2ccc(=O)[nH]c2=O)O1)N(C)C(=O)c1cccc(N)c1 (stereo not drawn)', 'Pseudomonas aeruginosa PAM 1135', 'MIC (μg/ml) Broth microdilution', '>512 µg/mL');

# get_value(readout='MIC (μg/ml) Broth microdilution', item= CSCCC(NC(=O)NC(Cc1ccc(O)cc1)C(=O)O)C(=O)NC(C(=O)NCC1CC(O)C(n2ccc(=O)[nH]c2=O)O1)C(C)N(C)C(=O)C(C)N (stereo not drawn) )
>512 µg/mL
